assay_procedure: Acute toxicity in ICR mouse assessed as mortality rate at 178 mg/kg, ip measured up to 14 days relative to control
Assay type: organism-based
study_conditions: in vivo
parameter: mortality at 336 h (%)
Answer in %, number only, no unit symbol.

Param item = CC(C)CCC[C@@H](C)[C@H]1CC[C@@H]2[C@]1(C)CC[C@H]1[C@]23C=C[C@@]2(CC(=O)CC[C@]12C)OO3 ; retrieve measured mortality at 336 h. 0

---

System: Hepatitis B virus
assay_procedure: Antiviral activity against Hepatitis B virus infected in human HepG2.2.15 cells assessed as inhibition of HBeAg secretion at 3.13 ug/ml after 4 days by ELISA relative to control
Type: functional
study_conditions: HepG2.2.15, 96 h
parameter: inhibition at 3.13 µg/mL (%)
Supply the numeric figure in %, leaving out any unit text.

See these solved cases before continuing.
• CC(=O)O[C@H]1CC[C@]2(C)[C@H]3CC[C@]4(C)[C@@H]([C@H](C)CCCC(C)C)CC[C@H]4[C@@]34C=C[C@@]2(C1)OO4 = 3.51
• CC(C)CCC[C@@H](C)[C@H]1CC[C@@H]2[C@]1(C)CC[C@H]1[C@]23C=C[C@@]2(CC(=O)CC[C@]12C)OO3 = 54.1

So what does the record say about inhibition at 3.13 µg/mL for CCC(CC[C@@H](C)[C@H]1CC[C@@H]2[C@]1(C)CC[C@H]1[C@]23C=C[C@@]2(C[C@@H](O)CC[C@]12C)OO3)C(C)C (stereo partly drawn) ? 2.88

---

assay_procedure: Therapeutic index, ratio of TC50 for human HepG2.2.15 cells to IC50 for Hepatitis B virus infected in human HepG2.2.15 cells assessed as inhibition of HBeAg secretion after 4 days
Assay type: toxicity, cell-based
study_conditions: read-out: TI
parameter: selectivity ratio at 96 h
Quick one: just the number, no unit, thanks!

Look up selectivity ratio at 96 h for this compound: CC(C)CCC[C@@H](C)[C@H]1CC[C@@H]2[C@]1(C)CC[C@H]1[C@]23C=C[C@@]2(CC(=O)CC[C@]12C)OO3 5.51

---

assay_procedure: Therapeutic index, ratio of TC50 for human HepG2.2.15 cells to IC50 for Hepatitis B virus infected in human HepG2.2.15 cells assessed as inhibition of HBsAg secretion after 4 days
Assay type: toxicity, cell-based
study_conditions: read-out: TI
parameter: selectivity ratio at 96 h
Number, no unit, nothing else.

Consider the molecule shown here: CC(C)CCC[C@@H](C)[C@H]1CC[C@@H]2[C@]1(C)CC[C@H]1[C@]23C=C[C@@]2(CC(=O)CC[C@]12C)OO3 What is its recorded selectivity ratio at 96 h? 5.79

---

assay_procedure: Therapeutic index, ratio of TC50 for human HepG2.2.15 cells to IC50 for Hepatitis B virus infected in human HepG2.2.15 cells assessed as inhibition of HBsAg secretion after 8 days
Assay type: toxicity, cell-based
study_conditions: read-out: TI
parameter: selectivity ratio at 192 h
Form: value (number only, do not type unit).

Data request, read-out selectivity ratio at 192 h, for CC(C)CCC[C@@H](C)[C@H]1CC[C@@H]2[C@]1(C)CC[C@H]1[C@]23C=C[C@@]2(CC(=O)CC[C@]12C)OO3 3.4

---

System: Hepatitis B virus
assay_procedure: Antiviral activity against Hepatitis B virus infected in human HepG2.2.15 cells assessed as inhibition of HBeAg secretion at 3.13 ug/ml after 8 days by ELISA relative to control
Type: functional
study_conditions: HepG2.2.15, 192 h
In this section we review reported inhibition at 3.13 µg/mL values for a set of compounds.

* CCC(CC[C@@H](C)[C@H]1CC[C@@H]2[C@]1(C)CC[C@H]1[C@]23C=C[C@@]2(CC(=O)CC[C@]12C)OO3)C(C)C (some centres not stated) | 2.36%
* CCC(CC[C@@H](C)[C@H]1CC[C@@H]2[C@]1(C)CC[C@H]1[C@]23C=C[C@@]2(C[C@@H](OC(C)=O)CC[C@]12C)OO3)C(C)C (some centres not stated) | 25.8%
* CC(C)CCC[C@@H](C)[C@H]1CC[C@@H]2[C@]1(C)CC[C@H]1[C@]23C=C[C@@]2(CC(=O)CC[C@]12C)OO3 | 58.7%
* CCC(CC[C@@H](C)[C@H]1CC[C@@H]2[C@]1(C)CC[C@H]1[C@]23C=C[C@@]2(C[C@@H](O)CC[C@]12C)OO3)C(C)C (some centres not stated) | 10.3%
* CC(C)CCC[C@@H](C)[C@H]1CC[C@@H]2[C@]1(C)CC[C@H]1[C@]23C=C[C@@]2(C[C@@H](O)CC[C@]12C)OO3 | 2.55%
* CC(=O)O[C@H]1CC[C@]2(C)[C@H]3CC[C@]4(C)[C@@H]([C@H](C)CCCC(C)C)CC[C@H]4[C@@]34C=C[C@@]2(C1)OO4 | 7.56%

Could you share which inhibition at 3.13 µg/mL value was measured for Nc1ccn([C@H]2CS[C@@H](CO)O2)c(=O)n1 ? -9.22%

---

assay_procedure: Cytotoxicity against human HepG2.2.15 cells after 4 days by MTS assay
Format: cell-based, HepG2 2.2.15
study_conditions: HepG2.2.15 cells, read-out: TC50
parameter: CC50 at 96 h (µg/mL)
Numbers only; they are read as µg/mL.

I would be grateful if you could share the reported CC50 at 96 h for CC(C)CCC[C@@H](C)[C@H]1CC[C@@H]2[C@]1(C)CC[C@H]1[C@]23C=C[C@@]2(CC(=O)CC[C@]12C)OO3 . 10.2

---

Test system: Hepatitis B virus
assay_procedure: Antiviral activity against Hepatitis B virus infected in human HepG2.2.15 cells assessed as inhibition of HBeAg secretion at 3.13 ug/ml after 4 days by ELISA relative to control
Type: functional
study_conditions: HepG2.2.15, 96 h
parameter: inhibition at 3.13 µg/mL
Please answer using a numeric value trailed by its unit.

# annotated cases, reported inhibition at 3.13 µg/mL shown
* Nc1ccn([C@H]2CS[C@@H](CO)O2)c(=O)n1 | 4.94%
* CCC(CC[C@@H](C)[C@H]1CC[C@@H]2[C@]1(C)CC[C@H]1[C@]23C=C[C@@]2(CC(=O)CC[C@]12C)OO3)C(C)C (some centres undefined) | 3.28%

Data request, read-out inhibition at 3.13 µg/mL, for CCC(CC[C@@H](C)[C@H]1CC[C@@H]2[C@]1(C)CC[C@H]1[C@]23C=C[C@@]2(C[C@@H](OC(C)=O)CC[C@]12C)OO3)C(C)C (some centres undefined) 25.6%

Entry under review: CC(C)CCC[C@@H](C)[C@H]1CC[C@@H]2[C@]1(C)CC[C@H]1[C@]23C=C[C@@]2(C[C@@H](O)CC[C@]12C)OO3 . Reported inhibition at 3.13 µg/mL? 1.35%

---

assay_procedure: Acute toxicity in ICR mouse assessed as mortality rate at 750 mg/kg, ip measured up to 14 days relative to control
Format: organism-based
study_conditions: in vivo
parameter: mortality at 336 h (%)
Answer format: numeric, % implied, no suffix.

Find the recorded mortality at 336 h belonging to CC(C)CCC[C@@H](C)[C@H]1CC[C@@H]2[C@]1(C)CC[C@H]1[C@]23C=C[C@@]2(CC(=O)CC[C@]12C)OO3 and report it. 100

This collection of values is drawn from ChEMBL document CHEMBL4138041.
